- MEASURED TARGET: Testis-specific chromodomain protein Y 1 (Homo sapiens)
- Sequence (Q9Y6F8 whole entry): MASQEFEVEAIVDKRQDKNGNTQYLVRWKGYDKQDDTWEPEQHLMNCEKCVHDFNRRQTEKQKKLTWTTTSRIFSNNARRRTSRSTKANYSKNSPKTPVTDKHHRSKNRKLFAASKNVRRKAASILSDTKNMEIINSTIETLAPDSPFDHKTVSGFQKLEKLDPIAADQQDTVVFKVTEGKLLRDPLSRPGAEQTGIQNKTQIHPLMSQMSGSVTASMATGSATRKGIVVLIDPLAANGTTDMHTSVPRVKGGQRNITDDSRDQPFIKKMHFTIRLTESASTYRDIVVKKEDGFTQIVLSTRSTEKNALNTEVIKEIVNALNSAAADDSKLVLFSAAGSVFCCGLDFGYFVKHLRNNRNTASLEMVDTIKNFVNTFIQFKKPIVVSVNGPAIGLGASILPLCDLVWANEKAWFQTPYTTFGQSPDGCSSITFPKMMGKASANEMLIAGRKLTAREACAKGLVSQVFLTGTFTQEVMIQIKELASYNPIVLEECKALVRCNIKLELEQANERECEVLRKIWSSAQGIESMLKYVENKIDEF
- ASSAY NAME: Binding affinity to recombinant human N-terminal GST-tagged CDY1 (1 to 65 residues) expressed in Escherichia coli […] by SPR analysis
Could you please mark y for values of Kd below 20 µM and n for values at or above it?

Q: Take the compound `COc1cccc(NC(=O)Cn2c(=O)oc3ccccc32)c1` and say whether its Kd is less than 20 µM.
Result: y

====

- MEASURED TARGET: Chromobox protein homolog 7 (Homo sapiens, UniProt O95931)
- Sequence (O95931 whole entry, the tested form may be a part): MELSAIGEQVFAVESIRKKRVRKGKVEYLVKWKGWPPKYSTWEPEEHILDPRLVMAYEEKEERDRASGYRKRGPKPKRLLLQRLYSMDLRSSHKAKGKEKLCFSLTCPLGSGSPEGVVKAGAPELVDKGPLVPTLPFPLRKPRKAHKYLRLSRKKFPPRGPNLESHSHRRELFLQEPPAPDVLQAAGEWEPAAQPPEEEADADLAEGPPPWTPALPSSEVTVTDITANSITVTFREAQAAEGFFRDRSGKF
- ASSAY NAME: Binding affinity to recombinant human N-terminal GST-tagged CBX7 (1 to 62 residues) expressed in Escherichia coli […] by SPR analysis
Could you please mark condition met for values of Kd below 30 µM and condition not met for values at or above it?

# count of solved cases: 5
COc1ccc(C(=O)Cn2c(=O)oc3ccc(F)cc32)cc1OC    condition met
CCCN1C(=O)C(O)(CC(=O)c2cc(Br)c(Br)o2)c2cc(Cl)ccc21 (stereo unspecified)    condition met
O=C(Cn1c(=O)oc2ccc(F)cc21)c1ccc2ccccc2c1    condition not met
O=C(Cn1c(=O)oc2ccc(F)cc21)c1c[nH]c2ccccc12    condition met
CC(C)N1C(=O)C(O)(CC(=O)c2ccco2)c2ccccc21 (stereo unspecified)    condition not met

Shift focus to the following entry.
Q: Take the compound `COc1ccc2oc(=O)n(CC(=O)c3ccc(N(C)C)cc3)c2c1` and say whether its Kd is less than 30 µM.
Result: condition met

====

- Tested on: SH-SY5Y
- ASSAY NAME: Cytotoxicity against human SH-SY5Y cells assessed as reduction in cell viability incubated for 24 hrs by CCK8 assay
READOUT TYPE: IC50 (µM)
Report only the number, with the unit µM understood.

Answered cases to consult:
COc1cccc(C(=O)/C=C2\C(=O)Nc3ccc(Cl)cc32)c1    21.5
COc1cccc(C(=O)CC2(O)C(=O)Nc3ccc(Cl)cc32)c1 (racemic)    68.1

# input for lookup
Q: What measured IC50 goes with COc1cccc(C(=O)CC2C(=O)Nc3ccc(Cl)cc32)c1 (racemic) ?
Result: 43.4

====

- MEASURED TARGET: Chromobox protein homolog 7 (Homo sapiens, UniProt O95931)
- ASSAY NAME: Binding affinity to recombinant human N-terminal GST-tagged CBX7 (1 to 62 residues) expressed in Escherichia coli […] by SPR analysis
As shown below, each of these compounds has a reported pKd value.
Give only the number. pKd is defined as minus log10 of concentration in molar units.

Answered cases to consult:
O=C(Cn1c(=O)oc2ccccc21)N1CCC(N2CCCCC2)CC1    4.87
CN1C(=O)C(O)(CC(=O)c2cccc3ccccc23)c2ccccc21 (stereo not drawn)    5.62

Q: What measured pKd goes with `O=C(Cn1c(=O)oc2ccccc21)c1ccc2ccccc2c1` ?
Result: 4.85

Q: What measured pKd goes with `COc1cccc(C(=O)Cn2c(=O)[nH]c3ccc(Cl)cc32)c1` ?
Result: 4.54

Q: What measured pKd goes with `O=C(Cn1c(=O)oc2ccccc21)Nc1ccc2ccccc2c1` ?
Result: 4.71

Q: What measured pKd goes with COc1cccc(C(=O)CC2(O)C(=O)Nc3ccc(Cl)cc32)c1 (racemic) ?
Result: 4.07

Q: What measured pKd goes with `N#Cc1ccc2oc(=O)n(CC(=O)c3c[nH]c4ccccc34)c2c1` ?
Result: 4.33

Q: What measured pKd goes with `COc1cccc(NC(=O)Cn2c(=O)oc3ccccc32)c1` ?
Result: 4.83

Q: What measured pKd goes with `O=C(Cn1c(=O)oc2ccccc21)N1CCC(N2CCOCC2)CC1` ?
Result: 5.25

Q: What measured pKd goes with `COc1cccc(C(=O)Cn2c(=O)oc3ccc(C#N)cc32)c1` ?
Result: 4.71

Q: What measured pKd goes with `COc1cccc(C(=O)Cn2c(=O)oc3ccc(OC)cc32)c1` ?
Result: 4.76

Q: What measured pKd goes with `O=C(Cn1c(=O)sc2cc([N+](=O)[O-])ccc21)c1c[nH]c2ccccc12` ?
Result: 5.06

Q: What measured pKd goes with `COc1cccc(C(=O)Cn2c(=O)oc3ccc(F)cc32)c1` ?
Result: 5.47

Q: What measured pKd goes with `COc1ccc2oc(=O)n(CC(=O)c3ccc(OC)c(OC)c3)c2c1` ?
Result: 5.41

Q: What measured pKd goes with CCc1ccc(C(=O)CC2(O)C(=O)Nc3ccc(Cl)cc32)cc1 (stereo not drawn) ?
Result: 4.92

Q: What measured pKd goes with CN1C(=O)C(O)(CC(=O)c2ccc3ccccc3c2)c2ccccc21 (stereo not drawn) ?
Result: 5.29

Q: What measured pKd goes with `COc1ccc(C(=O)Cn2c(=O)oc3ccccc32)cc1OC` ?
Result: 4.31

Q: What measured pKd goes with `O=C(Cn1c(=O)oc2ccc(Br)cc21)c1ccc2ccccc2c1` ?
Result: 5.02

Q: What measured pKd goes with `CCN(CC)C1CCN(C(=O)Cn2c(=O)oc3ccc(F)cc32)CC1` ?
Result: 5.55

Q: What measured pKd goes with `O=C(Cn1c(=O)oc2cc(Br)ccc21)c1ccc2ccccc2c1` ?
Result: 4.53

Q: What measured pKd goes with CCCCN1C(=O)C(O)(CC(=O)c2cccc(OC)c2)c2ccccc21 (stereo not drawn) ?
Result: 5.06

Q: What measured pKd goes with `COc1ccc2oc(=O)n(CC(=O)N3CCC(N4CCCC4)CC3)c2c1` ?
Result: 5.09

Q: What measured pKd goes with `CN(C)c1ccc(C(=O)Cn2c(=O)oc3ccc(F)cc32)cc1` ?
Result: 4.11

====

- MEASURED TARGET: Testis-specific chromodomain protein Y 1 (Homo sapiens, UniProt Q9Y6F8)
- ASSAY NAME: Binding affinity to recombinant human N-terminal GST-tagged CDY1 (1 to 65 residues) expressed in Escherichia coli […] by SPR analysis
READOUT TYPE: Kd (µM)
Report only the number, with the unit µM understood.

Answered cases to consult:
N#Cc1ccc2oc(=O)n(CC(=O)c3ccc4ccccc4c3)c2c1    71.5
N#Cc1ccc2oc(=O)n(CC(=O)c3c[nH]c4ccccc34)c2c1    4.6

Q: What measured Kd goes with `Nc1ccc2c(c1)sc(=O)n2CC(=O)c1c[nH]c2ccccc12` ?
Result: 51.1

====

- MEASURED TARGET: Testis-specific chromodomain protein Y 1 (Homo sapiens)
- ASSAY NAME: Binding affinity to recombinant human N-terminal GST-tagged CDY1 (1 to 65 residues) expressed in Escherichia coli […] by SPR analysis
pKd: −log10 of the molar value.
Quick rule for you: pKd at 5 or higher means Satisfied, lower means Not satisfied.

# count of solved cases: 5
O=C(CN1C(=O)COc2ccccc21)c1ccc2ccccc2c1    Not satisfied
O=C(Cn1c(=O)oc2ccccc21)c1c[nH]c2ccccc12    Not satisfied
O=C(CN1C(=O)COc2ccccc21)c1c[nH]c2ccccc12    Not satisfied
O=C(Cn1c(=O)oc2ccccc21)N1CCC(N2CCCCC2)CC1    Not satisfied
O=C(Cn1c(=O)oc2cc(Br)ccc21)c1ccc2ccccc2c1    Satisfied

Q: Reported pKd reaches at least 5 for `CN(C)C1CCN(C(=O)Cn2c(=O)oc3ccccc32)CC1` ?
Result: Not satisfied

Q: Reported pKd reaches at least 5 for `O=C(Cn1c(=O)sc2cc([N+](=O)[O-])ccc21)c1c[nH]c2ccccc12` ?
Result: Not satisfied

Q: Reported pKd reaches at least 5 for `COc1ccc(C(=O)Cn2c(=O)oc3ccc(F)cc32)cc1OC` ?
Result: Satisfied

Q: Reported pKd reaches at least 5 for `COc1cccc(C(=O)Cn2c(=O)[nH]c3ccc(Cl)cc32)c1` ?
Result: Not satisfied

Q: Reported pKd reaches at least 5 for `O=C(Cn1c(=O)oc2ccccc21)c1cccc2ccccc12` ?
Result: Satisfied

Q: Reported pKd reaches at least 5 for CN1C(=O)C(O)(CC(=O)c2ccc3ccccc3c2)c2ccccc21 (stereo not drawn) ?
Result: Not satisfied

Q: Reported pKd reaches at least 5 for `O=C(Cn1c(=O)oc2ccccc21)Nc1cccc2ccccc12` ?
Result: Satisfied
